Please go through the items and note down their Lung L132 (ED50).
# Tested on: L132
# run.description: Tumor cell cytotoxicity assay, lung
# Type: cell-based
# test.parameters: concentration causing 50% cytotoxicity
Value expressed in µg/mL; do not type the unit.

Need Lung L132 (ED50) of CC(C)C1CCC2(C(=O)O)CCC3(C)C(CCC4C5(C)CCC(N=Cc6ccc(F)c(F)c6)C(C)(C)C5CCC43C)C12 (stereo not shown) [MJ998-RS] , thanks.
2.5

Next up: CC(C)C1CCC2(C(=O)O)CCC3(C)C(CCC4C5(C)CCC(OC(=O)c6ccccc6C(F)(F)F)C(C)(C)C5CCC43C)C12 (stereo not shown) [MJ943-RS]
4

Next up: CC(C)C1CCC2(C(=O)O)CCC3(C)C(CCC4C5(C)CCC(N=Cc6ccc(F)cc6F)C(C)(C)C5CCC43C)C12 (stereo not shown) [MJ1065-RS]
3.4

Next up: CC(C)C1CCC2(C(=O)O)CCC3(C)C(CCC4C5(C)CCC(NNc6ccccc6)C(C)(C)C5CCC43C)C12 (stereo not shown) [MJ878-RS]
0.8

Next up: C=CC(=O)OC(=O)C12CCC(C(C)C)C1C1CCC3C4(C)CCC(O)C(C)(C)C4CCC3(C)C1(C)CC2 (stereo not shown) [MJ1103-RS]
4

Next up: C=C(C)C1CCC2(C(=O)O)CCC3(C)C(CCC4C5(C)CCC(OC(=O)c6ccc(CCCCC)cc6)C(C)(C)C5CCC43C)C12 (stereo not shown) [MJ1104-RS]
5.9

----------
# System: HT-29
# run.description: Tumor cell cytotoxicity assay, colon
# Assay type: cell-based
# test.parameters: concentration causing 50% cytotoxicity
# Description: The cytotoxicity assays for tumor cells have been described in detail in our application Ser. No. 09/040,856 filed in U.S. on Mar. 18, 1998.
Please go through the items and note down their Colon HT-29 (ED50).
Value expressed in µg/mL; do not type the unit.

Need Colon HT-29 (ED50) of C=C(C)C1CCC2(C(=O)O)CCC3(C)C(CCC4C5(C)CCC(OC(=O)c6ccc(CCCCC)cc6)C(C)(C)C5CCC43C)C12 (stereo not shown) , thanks.
3.5

Next up: CC(C)C1CCC2(C(=O)O)CCC3(C)C(CCC4C5(C)CCC(N=Cc6ccc(F)cc6F)C(C)(C)C5CCC43C)C12 (stereo not shown)
4.9
